# System: VRE. faecalisATCC 51575
# assay-method-text: MIC/MBC (CLSI broth microdilution) against VRE faecalis ATCC 51575
# Type: cell-based
# stated-conditions: Enterococcus; VRE faecalis ATCC 51575; read-out: MIC
recorded-endpoint: MIC

compound="O=C(Nc1nnc(-c2cccc(F)c2)o1)c1ccc(OC(F)(F)F)cc1 [HSGN-237]" result="1 µg/mL"
compound="O=C(Nc1nnc(-c2ccc(Cl)s2)o1)c1ccc(OC(F)(F)F)cc1 [HSGN-238]" result="1 µg/mL"
compound="CC(=O)NC[C@H]1CN(c2ccc(N3CCOCC3)c(F)c2)C(=O)O1 [Linezolid, linezolid, reference compound]" result="2 µg/mL"
compound="O=C(Nc1nnc(-c2ccc(C(F)(F)F)cc2)o1)c1ccc(OC(F)(F)F)c(F)c1 [HSGN-235]" result="2 µg/mL"

* * *

# Tested on: N. gonorrhoeae 194
# assay-method-text: MIC/MBC against N. gonorrhoeae clinical isolate 194
# Format: cell-based
# stated-conditions: Neisseria gonorrhoeae
MIC by entry:
recorded-endpoint: MIC (µg/mL)

molecule="CN(C)[C@@H]1C(O)=C(C(N)=O)C(=O)[C@@]2(O)C(O)=C3C(=O)c4c(O)cccc4[C@@](C)(O)[C@H]3C[C@@H]12 [Tetracycline, tetracycline, reference compound]" test_system="N. gonorrhoeae 194" recorded_endpoint=MIC result_number=1
molecule=O=C(Nc1nnc(-c2ccc(C(F)(F)F)cc2)o1)c1ccc(OC(F)(F)F)c(F)c1 test_system="N. gonorrhoeae 194" recorded_endpoint=MIC result_number=1
molecule=O=C(Nc1nnc(-c2ccc(Cl)s2)o1)c1ccc(OC(F)(F)F)cc1 test_system="N. gonorrhoeae 194" recorded_endpoint=MIC result_number=0.125
molecule=O=C(Nc1nnc(-c2cccc(F)c2)o1)c1ccc(OC(F)(F)F)cc1 test_system="N. gonorrhoeae 194" recorded_endpoint=MIC result_number=0.03
molecule="CC[C@H]1OC(=O)[C@H](C)[C@@H](O[C@H]2C[C@@](C)(OC)[C@@H](O)[C@H](C)O2)[C@H](C)[C@@H](O[C@@H]2O[C@H](C)C[C@H](N(C)C)[C@H]2O)[C@](C)(O)C[C@@H](C)CN(C)[C@H](C)[C@@H](O)[C@]1(C)O [Azithromycin, azithromycin, reference compound]" test_system="N. gonorrhoeae 194" recorded_endpoint=MIC result_number=0.25

* * *

# Test system: N. gonorrhoeae 165
# assay-method-text: MIC/MBC against N. gonorrhoeae clinical isolate 165
# Assay type: cell-based
# stated-conditions: Neisseria gonorrhoeae
log10 of MBC by entry:
recorded-endpoint: log10 of MBC (log10 of the value in µg/mL)

molecule=O=C(Nc1nnc(-c2ccc(Cl)s2)o1)c1ccc(OC(F)(F)F)cc1 test_system="N. gonorrhoeae 165" recorded_endpoint="log10 of MBC" result_number=-0.60
molecule="CC[C@H]1OC(=O)[C@H](C)[C@@H](O[C@H]2C[C@@](C)(OC)[C@@H](O)[C@H](C)O2)[C@H](C)[C@@H](O[C@@H]2O[C@H](C)C[C@H](N(C)C)[C@H]2O)[C@](C)(O)C[C@@H](C)CN(C)[C@H](C)[C@@H](O)[C@]1(C)O [Azithromycin, azithromycin, reference compound]" test_system="N. gonorrhoeae 165" recorded_endpoint="log10 of MBC" result_number=0.60
molecule="CN(C)[C@@H]1C(O)=C(C(N)=O)C(=O)[C@@]2(O)C(O)=C3C(=O)c4c(O)cccc4[C@@](C)(O)[C@H]3C[C@@H]12 [Tetracycline, tetracycline, reference compound]" test_system="N. gonorrhoeae 165" recorded_endpoint="log10 of MBC" result_number=0.90
molecule=O=C(Nc1nnc(-c2ccc(C(F)(F)F)cc2)o1)c1ccc(OC(F)(F)F)c(F)c1 test_system="N. gonorrhoeae 165" recorded_endpoint="log10 of MBC" result_number=0.30
molecule=O=C(Nc1nnc(-c2cccc(F)c2)o1)c1ccc(OC(F)(F)F)cc1 test_system="N. gonorrhoeae 165" recorded_endpoint="log10 of MBC" result_number=-0.90

* * *

MBC by entry:
# System: N. gonorrhoeae WHO L
# assay-method-text: MIC/MBC against N. gonorrhoeae WHO L reference strain
# Type: cell-based
# stated-conditions: Neisseria gonorrhoeae
recorded-endpoint: MBC

compound="O=C(Nc1nnc(-c2ccc(Cl)s2)o1)c1ccc(OC(F)(F)F)cc1 [HSGN-238]" result="0.125 µg/mL"
compound="O=C(Nc1nnc(-c2cccc(F)c2)o1)c1ccc(OC(F)(F)F)cc1 [HSGN-237]" result="0.06 µg/mL"
compound="CN(C)[C@@H]1C(O)=C(C(N)=O)C(=O)[C@@]2(O)C(O)=C3C(=O)c4c(O)cccc4[C@@](C)(O)[C@H]3C[C@@H]12 [Tetracycline, tetracycline, reference compound]" result="2 µg/mL"
compound="CC[C@H]1OC(=O)[C@H](C)[C@@H](O[C@H]2C[C@@](C)(OC)[C@@H](O)[C@H](C)O2)[C@H](C)[C@@H](O[C@@H]2O[C@H](C)C[C@H](N(C)C)[C@H]2O)[C@](C)(O)C[C@@H](C)CN(C)[C@H](C)[C@@H](O)[C@]1(C)O [Azithromycin, azithromycin, reference compound]" result="1 µg/mL"
compound="O=C(Nc1nnc(-c2ccc(C(F)(F)F)cc2)o1)c1ccc(OC(F)(F)F)c(F)c1 [HSGN-235]" result="2 µg/mL"

* * *

# Test system: E. coli BW25113 (wild-type strain)
# assay-method-text: MIC/MBC (CLSI broth microdilution) against E. coli BW25113 wild type
# Type: cell-based, Escherichia coli
# stated-conditions: Escherichia coli; E. coli BW25113 wild-type strain; read-out: MIC
MIC by entry:
recorded-endpoint: MIC

molecule="CC(=O)NC[C@H]1CN(c2ccc(N3CCOCC3)c(F)c2)C(=O)O1 [Linezolid, linezolid, reference compound]" recorded_endpoint=MIC result="> 64 µg/mL"
molecule=O=C(Nc1nnc(-c2ccc(C(F)(F)F)cc2)o1)c1ccc(OC(F)(F)F)c(F)c1 recorded_endpoint=MIC result="> 8 µg/mL"
molecule=O=C(Nc1nnc(-c2ccc(Cl)s2)o1)c1ccc(OC(F)(F)F)cc1 recorded_endpoint=MIC result="> 8 µg/mL"
molecule="CNC(C)C1CCC(N)C(OC2C(N)CC(N)C(OC3OCC(C)(O)C(NC)C3O)C2O)O1 (centres unmarked) [Gentamicin, gentamicin, reference compound]" recorded_endpoint=MIC result="0.25 µg/mL"
molecule=O=C(Nc1nnc(-c2cccc(F)c2)o1)c1ccc(OC(F)(F)F)cc1 recorded_endpoint=MIC result="> 8 µg/mL"

* * *

MIC by entry:
# Test system: VRE. faecium ATCC 700221
# assay-method-text: MIC/MBC (CLSI broth microdilution) against VRE faecium ATCC 700221
# Assay type: cell-based
# stated-conditions: Enterococcus; VRE faecium ATCC 700221; read-out: MIC
recorded-endpoint: MIC (µg/mL)

compound=O=C(Nc1nnc(-c2ccc(Cl)s2)o1)c1ccc(OC(F)(F)F)cc1 recorded_endpoint=MIC units=µg/mL result_number=0.25
compound=O=C(Nc1nnc(-c2ccc(C(F)(F)F)cc2)o1)c1ccc(OC(F)(F)F)c(F)c1 recorded_endpoint=MIC units=µg/mL result_number=1
compound="CC(=O)NC[C@H]1CN(c2ccc(N3CCOCC3)c(F)c2)C(=O)O1 [Linezolid, linezolid, reference compound]" recorded_endpoint=MIC units=µg/mL result_number=2
compound=O=C(Nc1nnc(-c2cccc(F)c2)o1)c1ccc(OC(F)(F)F)cc1 recorded_endpoint=MIC units=µg/mL result_number=0.5

* * *

# Test system: VRE. faecium ATCC 700221
# assay-method-text: MIC/MBC (CLSI broth microdilution) against VRE faecium ATCC 700221
# Format: cell-based
# stated-conditions: Enterococcus; VRE faecium ATCC 700221; read-out: MBC
recorded-endpoint: MBC (mg/L)

compound=O=C(Nc1nnc(-c2ccc(C(F)(F)F)cc2)o1)c1ccc(OC(F)(F)F)c(F)c1 test_system="VRE. faecium ATCC 700221" units=mg/L result_number=32
compound="CC(=O)NC[C@H]1CN(c2ccc(N3CCOCC3)c(F)c2)C(=O)O1 [Linezolid, linezolid, reference compound]" test_system="VRE. faecium ATCC 700221" units=mg/L result_number=64
compound=O=C(Nc1nnc(-c2ccc(Cl)s2)o1)c1ccc(OC(F)(F)F)cc1 test_system="VRE. faecium ATCC 700221" units=mg/L result_number=8
compound=O=C(Nc1nnc(-c2cccc(F)c2)o1)c1ccc(OC(F)(F)F)cc1 test_system="VRE. faecium ATCC 700221" units=mg/L result_number=8

* * *

log10(MBC) by entry:
# Tested on: N. gonorrhoeae 200
# assay-method-text: MIC/MBC against N. gonorrhoeae clinical isolate 200
# Format: cell-based
# stated-conditions: Neisseria gonorrhoeae
recorded-endpoint: log10(MBC) (log10 of the value in mg/L)

molecule="O=C(Nc1nnc(-c2ccc(Cl)s2)o1)c1ccc(OC(F)(F)F)cc1 [HSGN-238]" result_number=-0.90
molecule="CC[C@H]1OC(=O)[C@H](C)[C@@H](O[C@H]2C[C@@](C)(OC)[C@@H](O)[C@H](C)O2)[C@H](C)[C@@H](O[C@@H]2O[C@H](C)C[C@H](N(C)C)[C@H]2O)[C@](C)(O)C[C@@H](C)CN(C)[C@H](C)[C@@H](O)[C@]1(C)O [Azithromycin, azithromycin, reference compound]" result_number=-0.30
molecule="CN(C)[C@@H]1C(O)=C(C(N)=O)C(=O)[C@@]2(O)C(O)=C3C(=O)c4c(O)cccc4[C@@](C)(O)[C@H]3C[C@@H]12 [Tetracycline, tetracycline, reference compound]" result_number=0.90
molecule="O=C(Nc1nnc(-c2ccc(C(F)(F)F)cc2)o1)c1ccc(OC(F)(F)F)c(F)c1 [HSGN-235]" result_number=0.30
molecule="O=C(Nc1nnc(-c2cccc(F)c2)o1)c1ccc(OC(F)(F)F)cc1 [HSGN-237]" result_number=-1.22
